# experimentalTarget: IKZF3-GFP (Homo sapiens)
# Construct: gateway cloning of IKZF3 from a pENTR221-IKZF3(STOP-Leu) construct into the previously described pLenti6-DEST-GFP-Ires-RFP vector; expressed in transfected cells; host or cells: HEK293A cells (Invitrogen R70507), lentiviral transduction with pLenti6-IKZF3-GFP-Ires-RFP, blasticidin-selected
# protocolDescription: IKZF3-GFP protein abundance flow cytometry assay in HEK293A cells
# Type: cell-based
# experimentalConditions: 24 h, Table 1
I'd be grateful if you could share measured DC50 for these entries.

Data request: Request - read-out DC50 | tested on IKZF3-GFP (Homo sapiens) | molecule COc1ccc(C(=O)N2CCC(CN3CCN(Cc4ccc(-c5cc6c(-c7cc(F)cc(NC(=O)N8C[C@H](CC(C)C)[C@@H](O)C8)c7C)ncnc6[nH]5)cc4)CC3)CC2)cc1N1CCC(=O)NC1=O [Compound 12]
Data returned: > 1100 nM

Data request: Request - read-out DC50 | tested on IKZF3-GFP (Homo sapiens) | molecule COc1ccc(C(=O)N2CCC3(CCN(CCc4ccc(-c5cc6c(-c7cc(F)cc(NC(=O)N8C[C@H](CC(C)C)[C@@H](O)C8)c7C)ncnc6[nH]5)cc4)CC3)CC2)cc1N1CCC(=O)NC1=O [Compound 15]
Data returned: > 5500 nM

Data request: Request - read-out DC50 | tested on IKZF3-GFP (Homo sapiens) | molecule COc1ccc(C(=O)N2CCC3(CCN(Cc4ccc(-c5cc6c(-c7cc(F)cc(NC(=O)N8C[C@@H](CC(C)C)[C@H](O)C8)c7C)ncnc6[nH]5)cc4)CC3)CC2)cc1N1CCC(=O)NC1=O (racemic) [Compound 5]
Data returned: > 3300 nM

Data request: Request - read-out DC50 | tested on IKZF3-GFP (Homo sapiens) | molecule COc1ccc(C(=O)N2CCC3(CCN(CCc4ccc(-c5cc6c(-c7cc(F)cc(NC(=O)N8C[C@@H](CC(C)C)[C@H](O)C8)c7C)ncnc6[nH]5)cc4)CC3)CC2)cc1N1CCC(=O)NC1=O [Compound 19]
Data returned: > 1100 nM

Data request: Request - read-out DC50 | tested on IKZF3-GFP (Homo sapiens) | molecule COc1ccc(C(=O)N2CCC(CN3CCC(Oc4ccc(-c5cc6c(-c7cc(F)cc(NC(=O)N8C[C@H](CC(C)C)[C@@H](O)C8)c7C)ncnc6[nH]5)cc4)CC3)CC2)cc1N1CCC(=O)NC1=O [Compound 11]
Data returned: > 10000 nM

Data request: Request - read-out DC50 | tested on IKZF3-GFP (Homo sapiens) | molecule COc1ccc(C(=O)N2CCC(CN3CCN(Cc4ccc(-c5cc6c(-c7cc(F)cc(NC(=O)N8C[C@@H](CC(C)C)[C@H](O)C8)c7C)ncnc6[nH]5)cc4)CC3)CC2)cc1N1CCC(=O)NC1=O [Compound 10]
Data returned: > 370 nM

Data request: Request - read-out DC50 | tested on IKZF3-GFP (Homo sapiens) | molecule COc1ccc(C(=O)N2CCC(CCN3CCC(OCc4ccc(-c5cc6c(-c7cc(F)cc(NC(=O)N8C[C@H](CC(C)C)[C@@H](O)C8)c7C)ncnc6[nH]5)cc4)CC3)CC2)cc1N1CCC(=O)NC1=O [Compound 22]
Data returned: > 1100 nM

Data request: Request - read-out DC50 | tested on IKZF3-GFP (Homo sapiens) | molecule COc1ccc(C(=O)N2CCC3(CCN(Cc4ccc(-c5cc6c(-c7cc(F)cc(NC(=O)N8C[C@@H](CC(C)C)[C@H](O)C8)c7C)ncnc6[nH]5)cc4)CC3)CC2)cc1N1CCC(=O)NC1=O [Compound 1]
Data returned: > 1100 nM

Data request: Request - read-out DC50 | tested on IKZF3-GFP (Homo sapiens) | molecule COc1ccc(C(=O)N2CCC(OC3CCN(CCc4ccc(-c5cc6c(-c7cc(F)cc(NC(=O)N8C[C@H](CC(C)C)[C@@H](O)C8)c7C)ncnc6[nH]5)cc4)CC3)CC2)cc1N1CCC(=O)NC1=O [Compound 13]
Data returned: > 3300 nM

----------
# Test system: OCI-LY3 cells
# protocolDescription: Resazurin cell viability assay in DLBCL cells (OCI-LY3)
# Assay type: cell-based
# experimentalConditions: Homo sapiens, OCI-Ly3, 72 h, OCI-LY3 cells (BTK independent), 50% growth inhibition, read-out: OCI-LY3 Prol GI50
readoutName: GI50

Data request: Which GI50 is listed for "COc1ccc(C(=O)N2CCC(CN3CCC(Oc4ccc(-c5cc6c(-c7cc(F)cc(NC(=O)N8C[C@H](CC(C)C)[C@@H](O)C8)c7C)ncnc6[nH]5)cc4)CC3)CC2)cc1N1CCC(=O)NC1=O" ?
Data returned: 3.51 µM

Data request: Which GI50 is listed for "COc1ccc(C(=O)N2CCC(OC3CCN(CCc4ccc(-c5cc6c(-c7cc(F)cc(NC(=O)N8C[C@H](CC(C)C)[C@@H](O)C8)c7C)ncnc6[nH]5)cc4)CC3)CC2)cc1N1CCC(=O)NC1=O" ?
Data returned: 9.22 µM

Data request: Which GI50 is listed for COc1ccc(C(=O)N2CCC3(CCN(Cc4ccc(-c5cc6c(-c7cc(F)cc(NC(=O)N8C[C@@H](CC(C)C)[C@H](O)C8)c7C)ncnc6[nH]5)cc4)CC3)CC2)cc1N1CCC(=O)NC1=O (racemic) [Compound 5] ?
Data returned: 7.46 µM

Data request: Which GI50 is listed for "COc1ccc(C(=O)N2CCC(CCN3CCC(Oc4ccc(-c5cc6c(-c7cc(F)cc(NC(=O)N8C[C@H](CC(C)C)[C@@H](O)C8)c7C)ncnc6[nH]5)cc4)CC3)CC2)cc1N1CCC(=O)NC1=O" ?
Data returned: 4.48 µM

Data request: Which GI50 is listed for "COc1ccc(C(=O)N2CCC(OC3CCN(Cc4ccc(-c5cc6c(-c7cc(F)cc(NC(=O)N8C[C@H](CC(C)C)[C@@H](O)C8)c7C)ncnc6[nH]5)cc4)CC3)CC2)cc1N1CCC(=O)NC1=O" ?
Data returned: > 10 µM

----------
# System: OCI-LY3 cells
# protocolDescription: Resazurin cell viability assay in DLBCL cells (OCI-LY3)
# Type: cell-based
# experimentalConditions: Homo sapiens, OCI-Ly3, 72 h, OCI-LY3 cells (BTK independent), 50% growth inhibition, read-out: OCI-LY3 Prol GI50
readoutName: GI50 (µM)
Respond with the bare value in µM.

Data request: Which GI50 is listed for "COc1ccc(C(=O)N2CCC(OCCN3CCN(Cc4ccc(-c5cc6c(-c7cc(F)cc(NC(=O)N8C[C@H](CC(C)C)[C@@H](O)C8)c7C)ncnc6[nH]5)cc4)CC3)CC2)cc1N1CCC(=O)NC1=O" ?
Data returned: 7.73

Data request: Which GI50 is listed for "COc1ccc(C(=O)N2CCC(CN3CCN(Cc4ccc(-c5cc6c(-c7cc(F)cc(NC(=O)N8C[C@@H](CC(C)C)[C@H](O)C8)c7C)ncnc6[nH]5)cc4)CC3)CC2)cc1N1CCC(=O)NC1=O" ?
Data returned: 4.08

Data request: Which GI50 is listed for "CCOc1ccc(C(=O)N2CCC3(CCN(CCc4ccc(-c5cc6c(-c7cc(F)cc(NC(=O)N8C[C@H](CC(C)C)[C@@H](O)C8)c7C)ncnc6[nH]5)cc4)CC3)CC2)cc1N1CCC(=O)NC1=O" ?
Data returned: 5.22

Data request: Which GI50 is listed for COc1ccc(C(=O)N2CCC(CCN3CCC(OCc4ccc(-c5cc6c(-c7cc(F)cc(NC(=O)N8CC(O)C(CC(C)C)C8)c7C)ncnc6[nH]5)cc4)CC3)CC2)cc1N1CCC(=O)NC1=O (racemic) ?
Data returned: 8.22

Data request: Which GI50 is listed for "COc1ccc(C(=O)N2CCC3(CCN(CCc4ccc(-c5cc6c(-c7cc(F)cc(NC(=O)N8C[C@H](CC(C)C)[C@@H](O)C8)c7C)ncnc6[nH]5)cc4)CC3)CC2)cc1N1CCC(=O)NC1=O" ?
Data returned: 7.25

Data request: Which GI50 is listed for "COc1ccc(C(=O)N2CCC(CCN3CCC(OCc4ccc(-c5cc6c(-c7cc(F)cc(NC(=O)N8C[C@H](CC(C)C)[C@@H](O)C8)c7C)ncnc6[nH]5)cc4)CC3)CC2)cc1N1CCC(=O)NC1=O" ?
Data returned: 6.68

Data request: Which GI50 is listed for COc1ccc(C(=O)N2CCC3(CCN(Cc4ccc(-c5cc6c(-c7cc(F)cc(NC(=O)N8C[C@@H](CC(C)C)[C@H](O)C8)c7C)ncnc6[nH]5)cc4)CC3)CC2)cc1N1CCC(=O)NC1=O [Compound 1] ?
Data returned: 7.12

----------
I'd be grateful if you could share measured DC50 for these entries.
# experimentalTarget: IKZF3-GFP (Homo sapiens, UniProt Q9UKT9)
# Construct: gateway cloning of IKZF3 from a pENTR221-IKZF3(STOP-Leu) construct into the previously described pLenti6-DEST-GFP-Ires-RFP vector; expressed in transfected cells; host or cells: HEK293A cells (Invitrogen R70507), lentiviral transduction with pLenti6-IKZF3-GFP-Ires-RFP, blasticidin-selected
# Sequence (Q96SW2 whole entry partner): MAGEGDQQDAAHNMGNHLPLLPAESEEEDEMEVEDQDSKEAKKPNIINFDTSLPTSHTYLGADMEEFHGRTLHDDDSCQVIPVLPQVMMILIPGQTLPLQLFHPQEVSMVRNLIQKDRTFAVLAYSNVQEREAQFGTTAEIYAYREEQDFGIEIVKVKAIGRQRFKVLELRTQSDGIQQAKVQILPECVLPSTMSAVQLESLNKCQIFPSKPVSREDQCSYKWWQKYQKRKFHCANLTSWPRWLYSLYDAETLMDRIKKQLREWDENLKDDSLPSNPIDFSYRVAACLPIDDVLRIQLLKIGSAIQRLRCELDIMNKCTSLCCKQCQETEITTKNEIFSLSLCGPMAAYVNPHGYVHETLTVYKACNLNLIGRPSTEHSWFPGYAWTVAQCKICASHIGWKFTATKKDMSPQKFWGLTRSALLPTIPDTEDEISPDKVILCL
# Sequence (Q16531 whole entry partner): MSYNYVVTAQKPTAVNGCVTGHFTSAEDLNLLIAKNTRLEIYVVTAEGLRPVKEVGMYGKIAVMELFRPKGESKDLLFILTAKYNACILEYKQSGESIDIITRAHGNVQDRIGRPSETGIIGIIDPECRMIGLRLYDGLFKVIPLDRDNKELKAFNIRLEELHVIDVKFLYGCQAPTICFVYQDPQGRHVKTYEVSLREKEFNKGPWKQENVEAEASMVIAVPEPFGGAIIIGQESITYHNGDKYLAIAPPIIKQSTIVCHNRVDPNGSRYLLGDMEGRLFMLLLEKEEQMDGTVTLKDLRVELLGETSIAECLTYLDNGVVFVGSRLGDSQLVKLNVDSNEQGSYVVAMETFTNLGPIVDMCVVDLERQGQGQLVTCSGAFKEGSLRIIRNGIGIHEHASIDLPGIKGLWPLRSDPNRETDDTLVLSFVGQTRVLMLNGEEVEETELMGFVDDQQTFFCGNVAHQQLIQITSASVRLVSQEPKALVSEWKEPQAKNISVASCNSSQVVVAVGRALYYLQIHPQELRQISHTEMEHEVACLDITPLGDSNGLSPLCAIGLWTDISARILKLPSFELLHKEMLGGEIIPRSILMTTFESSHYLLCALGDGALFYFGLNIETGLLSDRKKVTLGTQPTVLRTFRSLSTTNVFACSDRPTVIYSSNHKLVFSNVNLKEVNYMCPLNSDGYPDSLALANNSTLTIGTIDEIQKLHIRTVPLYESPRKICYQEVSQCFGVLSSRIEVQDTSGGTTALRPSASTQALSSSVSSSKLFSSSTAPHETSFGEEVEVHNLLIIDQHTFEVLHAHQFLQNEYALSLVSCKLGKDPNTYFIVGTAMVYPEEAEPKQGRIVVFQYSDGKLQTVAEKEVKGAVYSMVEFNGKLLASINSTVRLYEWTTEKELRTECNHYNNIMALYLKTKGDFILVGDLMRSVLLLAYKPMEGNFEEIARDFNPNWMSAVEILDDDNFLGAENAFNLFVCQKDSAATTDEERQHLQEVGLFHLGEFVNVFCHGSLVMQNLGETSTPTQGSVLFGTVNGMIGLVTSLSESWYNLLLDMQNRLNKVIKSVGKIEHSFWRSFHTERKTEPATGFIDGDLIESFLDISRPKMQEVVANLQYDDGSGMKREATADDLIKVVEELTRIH
# Sequence (Q9UKT9 whole entry): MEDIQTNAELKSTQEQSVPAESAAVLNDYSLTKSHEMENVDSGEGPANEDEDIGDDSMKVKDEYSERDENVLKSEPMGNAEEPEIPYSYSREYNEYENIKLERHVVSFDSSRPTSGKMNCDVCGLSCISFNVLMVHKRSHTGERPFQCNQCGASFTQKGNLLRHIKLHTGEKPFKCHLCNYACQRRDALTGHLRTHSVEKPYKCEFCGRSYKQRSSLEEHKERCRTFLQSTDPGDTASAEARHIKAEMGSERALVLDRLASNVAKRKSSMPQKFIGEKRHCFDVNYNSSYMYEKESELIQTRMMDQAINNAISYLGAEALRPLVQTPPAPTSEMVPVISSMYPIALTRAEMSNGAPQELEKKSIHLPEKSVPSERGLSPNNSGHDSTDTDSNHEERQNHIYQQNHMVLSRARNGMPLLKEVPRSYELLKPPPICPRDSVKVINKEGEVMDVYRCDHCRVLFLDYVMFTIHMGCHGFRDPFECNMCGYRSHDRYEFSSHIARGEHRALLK
# protocolDescription: IKZF3-GFP protein abundance flow cytometry assay in HEK293A cells
# Format: cell-based
# experimentalConditions: 24 h, Table 1

Data request: Which DC50 is listed for "COc1ccc(C(=O)N2CCC(OCCN3CCN(Cc4ccc(-c5cc6c(-c7cc(F)cc(NC(=O)N8C[C@H](CC(C)C)[C@@H](O)C8)c7C)ncnc6[nH]5)cc4)CC3)CC2)cc1N1CCC(=O)NC1=O" ?
Data returned: > 3.3 µM

Data request: Which DC50 is listed for "COc1ccc(C(=O)N2CCC(OC3CCN(Cc4ccc(-c5cc6c(-c7cc(F)cc(NC(=O)N8C[C@H](CC(C)C)[C@@H](O)C8)c7C)ncnc6[nH]5)cc4)CC3)CC2)cc1N1CCC(=O)NC1=O" ?
Data returned: > 1 µM

Data request: Which DC50 is listed for "COc1ccc(C(=O)N2CCC3(CCN(Cc4ccc(-c5cc6c(-c7cc(F)cc(NC(=O)N8C[C@H](CC(C)C)[C@@H](O)C8)c7C)ncnc6[nH]5)cc4)CC3)CC2)cc1N1CCC(=O)NC1=O" ?
Data returned: > 3.3 µM

The measurements presented in this section are drawn from patent US11541056B2.
